assay: qHTS RealTime-Glo MT Cell Viability Assay in HEK293 cells - 0 hour (AID 1224880); settings: RealTime-Glo luminescence; series mostly up to 76.8 µM; further: top concentration of the series differs between compounds; on the % scale 0 is the no-effect control and ±100 the full control effect; nearly all actives have a fitted effect of over 45% in size
Results filed as inconclusive are left out. Active and inactive are the calls of the source. The call rests on the fitted dose curve; in most records, active means well fitted cell-killing curve with a large enough effect in the repeat runs; inconclusive means weak or mixed curves, or effect the other way; inactive means flat fitted curve, though single readings scatter.
OBSERVABLE: outcome

Sample records with outcome:
CCC12COCN1COC2	inactive
Cc1ccccc1O	inactive
C=C(C)CCl	inactive
Cn1cc(-c2ccccc2)c(=O)c(-c2cccc(C(F)(F)F)c2)c1	inactive
Cc1cc(Cl)ccc1O	inactive

Exam item: Need outcome, item `ClCCBr`
Marked response: inactive

Exam item: // lookup outcome for `C=CCO`
Marked response: inactive

Exam item: Fill in: outcome of `[O-][Cl+2]([O-])O` is ___
Marked response: inactive

Exam item: Give its outcome value. Item: `CC(C)=C[C@@H]1[C@@H](C(=O)OCc2coc(Cc3ccccc3)c2)C1(C)C`
Marked response: inactive

----------
test: qHTS assay to test for compound auto fluorescence at 590 nm (red) in HepG2 cell free culture (AID 720684); settings: cell-free medium autofluorescence, red 540/590 nm; series mostly up to 91.3 µM; further: on the % scale 0 is the no-effect control and ±100 the full control effect
The source made the active and inactive calls. The call rests on the fitted dose curve; in most records, active means well fitted curve in the direction sought with a large enough effect in the repeat runs; inconclusive means weak or mixed curves; inactive means flat fitted curve, though single readings scatter.
OBSERVABLE: outcome

c1ccc(-c2ccccc2)cc1	inactive
CC(C)(C)OOC(C)(C)C	inactive
CCC(C)(CC)c1cc(NC(=O)c2c(OC)cccc2OC)on1	inactive
C#CC(C)(C)NC(=O)c1cc(Cl)cc(Cl)c1	inactive
Cc1ccccc1O	inactive
CC(C)=C[C@@H]1[C@@H](C(=O)OCc2coc(Cc3ccccc3)c2)C1(C)C	inactive
Nc1ccc(Oc2ccc(N)cc2)cc1	inactive
COC(=O)c1ccccc1N	inactive

Exam item: Fill in the blank: the reported outcome of `O=c1[nH]c(=O)[nH]c(=O)[nH]1` is ____.
Marked response: inactive

Exam item: outcome lookup needed for `C[C@]12CC[C@H]3[C@@H](CC[C@@]45O[C@@H]4C(O)=C(C#N)C[C@]35C)[C@@H]1CC[C@@H]2O` , thanks.
Marked response: inactive

----------
Assay: Caspase-3/7 induction in HepG2 cells by small molecules, qHTS cell viability counter screen (AID 1346981); further: on the % scale 0 is the no-effect control and ±100 the full control effect; nearly all actives have a fitted effect of over 30% in size
Conditions: CellTiter-Fluor fluorescence, 17 h; series mostly up to 92.4 µM
Description: U.S. Tox21 Program National Center for Advancing Translational Sciences [NCATS] NIH Chemical Genomics Center [NCGC] U.S. Environmental Protection Agency [EPA] National Institutes of Environmental Health Sciences [NIEHS] National Toxicology Program [NTP] U.S. Food and Drug Administration [FDA] Tox21 Assay Overview: Apoptosis is a process of programmed cell death and plays a central role in the development of multicellular organisms. […]
Records with an inconclusive call do not appear. Calls of active or inactive are those of the source. Calls follow the shape of the dose curve; as a rule, active = well fitted cell-killing curve with a large enough effect in the repeat runs; inconclusive = weak or mixed curves, or effect the other way; inactive = flat fitted curve, though single readings scatter.
OBSERVABLE: outcome

These recorded examples may help you get a feel for the data.
C=CC(N)=O	inactive
CN1C(=O)CN=C(c2ccccc2)c2cc(Cl)ccc21	inactive
c1ccc(-c2ccccc2)cc1	inactive
COc1ccc2c3c1O[C@H]1[C@@H](O)C=C[C@H]4[C@@H](C2)N(C)CC[C@@]341	inactive
CC(C)(C)C(O)(CCc1ccc(Cl)cc1)Cn1cncn1 (stereo not given)	inactive

Exam item: What outcome value was documented for this compound, `CCNc1nc(NC(C)C)nc(SC)n1` ?
Marked response: inactive

Exam item: # lookup: outcome of `Nc1ccc(Oc2ccc(N)cc2)cc1`
Marked response: inactive

Exam item: Fill in: outcome of `O=Cc1cccc(Oc2ccccc2)c1` is ___
Marked response: inactive

Exam item: Fill in: outcome of `Nc1ccccc1C(=O)O` is ___
Marked response: inactive

Exam item: What measured outcome goes with `Cc1cc(-c2cc(C)c(N)c(C)c2)cc(C)c1N` ?
Marked response: inactive

----------
experiment: qHTS assay for identifying genotoxic compounds that show differential cytotoxicity against isogenic chicken DT40 cell lines with known DNA damage response pathways - Rad54/Ku70 mutant cell line (AID 743015); conditions: DT40 Rad54/Ku70 mutant viability, CellTiter-Glo, 40 h; series mostly up to 66.8 µM; further: nearly all actives have a fitted effect of over 60% in size
Results filed as inconclusive are left out. Active and inactive are the calls of the source. Calls come from the whole dose curve; as a rule, active = well fitted cell-killing curve with a large enough effect in the repeat runs; inconclusive = weak or mixed curves; inactive = no such curve, though single readings can be large or run the other way.
Classes to choose from: active, inactive

Solved cases below.
CCCCN(CCCC)SN(C)C(=O)Oc1cccc2c1OC(C)(C)C2	active
NCCc1ccc(O)cc1	inactive
CC(Oc1ccc(Cl)cc1Cl)C(=O)O (stereo not given)	inactive

Exam item: What is the recorded call for this compound in the test? `O=[N+]([O-])c1ccc(Oc2ccc(Cl)cc2Cl)cc1`
Marked response: active

Exam item: Write down the call the test reported for this compound. Item: CC(C)C1(C)N=C(c2nc3ccccc3cc2C(=O)O)NC1=O (stereo not given)
Marked response: inactive

Exam item: # lookup: test call for `CCNc1nc(NC(C)(C)C)nc(SC)n1`
Marked response: active

----------
test: qHTS assay to identify small molecule antagonists of the retinoid-related orphan receptor gamma (ROR-gamma) signaling pathway - cell viability counter screen (AID 1159520); settings: Tet-on RORgamma CHO cells viability, ATP luminescence, 16 h; series mostly up to 92.4 µM; further: on the % scale 0 is the no-effect control and ±100 the full control effect; nearly all actives have a fitted effect of over 50% in size
Results filed as inconclusive are left out. The source made the active and inactive calls. Calls come from the whole dose curve; as a rule, active = well fitted cell-killing curve with a large enough effect in the repeat runs; inconclusive = weak or mixed curves, or effect the other way; inactive = no such curve, though single readings can be large or run the other way.
OBSERVABLE: Potency

Cc1ccc([N+](=O)[O-])cc1C	inactive
Cn1cc(-c2ccccc2)c(=O)c(-c2cccc(C(F)(F)F)c2)c1	inactive
Clc1ccc(Cl)cc1	inactive
CCNc1nc(NC(C)C)nc(SC)n1	inactive

Exam item: Which measured Potency value corresponds to `O=NN1CCCCCCC1` ?
Marked response: inactive

----------
assay: qHTS assay for small molecule disruptors of the mitochondrial membrane potential (AID 720635); details: HepG2 mitochondrial membrane potential, Mito-MPS dye ratio; series mostly up to 83.2 µM; further: on the % scale 0 is the no-effect control and ±100 the full control effect
Records with an inconclusive call do not appear. Active and inactive are the calls of the source. Calls follow the shape of the dose curve; as a rule, active = well fitted inhibition curve with a large enough effect in the signal ratio in the repeat runs; inconclusive = weak or mixed curves, or effect the other way; inactive = flat fitted curve, though single readings scatter; the % refers to the signal ratio.
The reply should be one of these categories: label 1 (active), label 0 (inactive)

These solved cases illustrate the format of a correct answer.
COC(=O)NC(=S)Nc1ccccc1NC(=S)NC(=O)OC	label 0
CN(C)N=O	label 0
CN=C=S	label 0
O=c1[nH]c(=O)[nH]c(=O)[nH]1	label 0
Cc1ccc(N)cc1Cl	label 0
c1ccc2c(c1)Oc1ccccc1O2	label 0

Below: the item to evaluate.
Exam item: Recorded test call requested for `Nc1ccc(Oc2ccc(N)cc2)cc1`
Marked response: label 0

----------
target: Cytochrome P450 2C19 (Homo sapiens) (UniProt P33261); experiment: Cytochrome P450 Family 2 Subfamily C Member 19 (CYP2C19) small molecule antagonists: luciferase reporter qHTS assay (AID 1671197); conditions: P450-Glo CYP2C19 enzyme, luciferin luminescence, 1 h; series mostly up to 115 µM; further: on the % scale 0 is the no-effect control and ±100 the full control effect; nearly all actives have a fitted effect of over 65% in size
Sequence (P33261 whole entry, looked up): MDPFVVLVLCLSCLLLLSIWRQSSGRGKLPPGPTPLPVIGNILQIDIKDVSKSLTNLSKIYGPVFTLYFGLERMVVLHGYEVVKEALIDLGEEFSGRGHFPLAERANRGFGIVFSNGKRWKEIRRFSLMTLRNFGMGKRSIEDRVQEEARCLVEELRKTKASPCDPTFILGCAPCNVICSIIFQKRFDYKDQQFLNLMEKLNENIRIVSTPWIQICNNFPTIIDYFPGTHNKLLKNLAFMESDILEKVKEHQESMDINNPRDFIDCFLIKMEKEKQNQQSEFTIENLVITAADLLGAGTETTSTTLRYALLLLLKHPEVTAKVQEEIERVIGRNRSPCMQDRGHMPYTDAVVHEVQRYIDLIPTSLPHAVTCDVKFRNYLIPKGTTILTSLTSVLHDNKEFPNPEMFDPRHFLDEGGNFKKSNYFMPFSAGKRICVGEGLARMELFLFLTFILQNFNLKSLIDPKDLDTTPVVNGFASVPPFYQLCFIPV
Inconclusive results are not listed. Activity calls are given as the source filed them. Calls come from the whole dose curve; as a rule, active = well fitted inhibition curve with a large enough effect in the repeat runs; inconclusive = weak or mixed curves; inactive = no such curve, though single readings can be large or run the other way.
Give one outcome, nothing more. List: active, inactive

Worked examples follow.
Cc1cccc([N+](=O)[O-])c1	inactive
CC(C)C1(C)N=C(c2nc3ccccc3cc2C(=O)O)NC1=O (centres undefined)	inactive

Exam item: Give the logged outcome of this assay for the following molecule: `Clc1ccccc1Cl`
Marked response: inactive

Exam item: What classification did `CCOP(OCC)OCC` end up with in this test?
Marked response: inactive

----------
Test: qHTS assay to test for compound auto fluorescence at 460 nm (blue) in HEK293 cells (AID 720678); further: on the % scale 0 is the no-effect control and ±100 the full control effect
Details: blue autofluorescence 405/460 nm; series mostly up to 91.3 µM
Text: National Center for Advancing Translational Sciences [NCATS] NIH Chemical Genomics Center [NCGC] U.S. Environmental Protection Agency [EPA] National Institutes of Environmental Health Sciences [NIEHS] National Toxicology Program [NTP] U.S. Food and Drug Administration [FDA] Compound auto fluorescence often interferes with screening of the compound library against various biological targets and signaling pathways. Some of these compounds may have fluorophoric properties. […]
The source made the active and inactive calls. The call rests on the fitted dose curve; in most records, active means well fitted curve in the direction sought with a large enough effect in the repeat runs; inconclusive means weak or mixed curves; inactive means flat fitted curve, though single readings scatter.
OBSERVABLE: outcome

Past entries and their recorded results:
Oc1ccccc1Cl	inactive
CCCCN(CCCC)SN(C)C(=O)Oc1cccc2c1OC(C)(C)C2	inactive
CCNc1nc(NC(C)(C)C)nc(SC)n1	inactive
CCOP(=S)(OCC)Oc1cnc2ccccc2n1	inactive
CCCN(CCC)N=O	inactive

Exam item: outcome lookup needed for CC(Oc1ccc(Cl)cc1Cl)C(=O)O (stereo not given) , thanks.
Marked response: inactive

----------
Assay: Caspase-3/7 induction in CHO-K1 cells by small molecules, qHTS cell viability counter screen (AID 1346979); further: nearly all actives have a fitted effect of over 35% in size
Conditions: CellTiter-Fluor fluorescence, 17 h; series mostly up to 92.4 µM
Text: National Center for Advancing Translational Sciences [NCATS] NIH Chemical Genomics Center [NCGC] U.S. Environmental Protection Agency [EPA] National Institutes of Environmental Health Sciences [NIEHS] National Toxicology Program [NTP] U.S. Food and Drug Administration [FDA] Apoptosis is a process of programmed cell death and plays a central role in the development of multicellular organisms. […]
Records with an inconclusive call do not appear. Calls of active or inactive are those of the source. The call rests on the fitted dose curve; in most records, active means well fitted cell-killing curve with a large enough effect in the repeat runs; inconclusive means weak or mixed curves, or effect the other way; inactive means no such curve, though single readings can be large or run the other way.
Parameter call: string, one of TRUE (active), FALSE (inactive)

Please review the following examples before continuing.
CCCCOC(=O)c1ccccc1C(=O)OCCCC	FALSE
CC1C=[C-]C=C1.[C-]#[O+].[C-]#[O+].[C-]#[O+].[Mn]	FALSE
Clc1ccc(Cl)cc1	TRUE
CC(Oc1ccc(Cl)cc1Cl)C(=O)O (stereo not given)	FALSE
Nc1c(Cl)c(Cl)nc(C(=O)O)c1Cl	FALSE

Exam item: Any idea what this test logged for `CCCCN(CC)C(=O)SCCC` ?
Marked response: FALSE

Exam item: # fetch the recorded call for `Cc1[nH]c(=O)n(C(C)(C)C)c(=O)c1Cl` here
Marked response: FALSE

Exam item: Dear colleague, could you share the recorded outcome for `CCCCCCCCCCCC#N` when you have a moment?
Marked response: FALSE

Exam item: Status in this test for C1CC2OC2CC1C1CO1 (stereo not given) ?
Marked response: FALSE

Exam item: State the result this test recorded for `OCCN(CCO)CCO` .
Marked response: FALSE
